Readings of recombinant UMI read abundance (log10) for the listed sequences
- method.description: recombinant UMI read abundance after kanamycin selection (control-corrected) (log10(CPM+1)); higher = more efficient recombination; extreme values may be limits of the assay; sequences stand for … in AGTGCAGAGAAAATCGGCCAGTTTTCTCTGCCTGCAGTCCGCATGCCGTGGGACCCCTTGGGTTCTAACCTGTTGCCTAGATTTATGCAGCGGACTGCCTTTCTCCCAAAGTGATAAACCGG…AGGTTGGTTTCACT; site = the 11-nt donor;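 note: IS621 bridge recombinase in Escherichia coli cells against a fixed T5 target plasmid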
Give the figure only, with no unit attached.

// below: answered sequences
sequence.content	readout.number
GTATGTACATGGACCGGTTTTCCCGGTAATCCGTATTTGTA (site GTATGAACTTA)	1.74
CGTTAAACATGGACCGGTTTTCCCGGTAATCCGTATTTGAG (site CGTTAAACTCT)	1.31
GATTGGTCATGGACCGGTTTTCCCGGTAATCCGTATTTGAC (site GATTGGGCTGT)	0
TAGGAATCATGGACCGGTTTTCCCGGTAATCCGTATTTGCG (site TAGGAATCTAG)	1.42

Proceeding to the next sequence to report its recombinant UMI read abundance (log10).
**Q:** What value of measured recombinant UMI read abundance (log10) is listed for CTGCTACCATGGACCGGTTTTCCCGGTAATCCGTATTTGCT (site CTGCTACCTCG) ?
**A:** 0.0163

Source: the supplement of paper PMC11208160
